Test system: Cancer Cell Lines (LoVo, HCT-116^+/+, HCT-116^-/-, HT-29, DLD-1)
method: MTT viability assay, mean over the five colon cancer cell lines and ratio to CoN
Assay type: cell-based, human
condition.details: Homo sapiens; mean over five cancer cell lines; MTT, 72 h; read-out: Mean IC50 Cancer Cells
Protocol: HCT-116 (CCL-247), LoVo (CCL-229), DLD-1 (CCL-221), HT-29 (HTB-38) and CoN (CCD-841) human CRC cells were obtained from the ATCC (Manassas, VA, USA). […] Effects of compounds on viability were assessed by means of 3-(4,5-dimethylthiazol-2-yl)-2,5-diphenyltetrazolium bromide (MTT; Sigma-Aldrich, Diegem, Belgium) colorimetric assay as previously reported. […]
Consider the following molecules; for each one, report its IC50.
Respond with the bare value in nM.

Query :: May I ask what IC50 has been recorded for O=C1N[C@H]2[C@H](O)[C@H](O)[C@@H](O)[C@H](O)[C@@H]2c2cc3c(c(O)c21)OCO3 [PANC, pancratistatin] ?
Result :: 300

Query :: Quick one: CO[C@@H]1C=C[C@@]23c4cc5c(cc4CN(C[C@@H]2O)[C@H]3C1)OCO5 [HAE, haemanthamine]
Result :: 2700

Query :: Quick one: O[C@H]1[C@H]2c3cc4c(cc3CN3CCC(=C[C@@H]1O)[C@H]23)OCO4 [LYC, lycorine]
Result :: 3200
